assay: BET inhibitor-based combinations targeting novel dependencies in MECOM-rearranged (r) AML: HNT-34 cell line (AID 2202234); details: HNT-34 AML viability, CellTiter-Glo luminescence, 48 h; series mostly up to 46 µM; also: nearly all actives have a fitted effect of over 35% in size
Records with an inconclusive call do not appear. The source made the active and inactive calls. Calls follow the shape of the dose curve; as a rule, active = well fitted inhibition curve with a large enough effect; inconclusive = small, poorly fitted or top-dose-only effect; inactive = no such curve, though single readings can be large or run the other way.
Mark one answer only. Choices: active, inactive

compound	categoryLabel
Cc1ccc(O)c(C(CCN(C(C)C)C(C)C)c2ccccc2)c1 (stereo not given)	inactive
O=C(O)C1=CC(O)C(O)[C@H](O)C1 (stereo not given in full)	inactive
C#C[C@]1(O)CC[C@H]2[C@@H]3CCC4=CC(=O)CC[C@@H]4[C@H]3CC[C@@]21CC	inactive
Cc1ncc(-c2ccnc(Nc3ccc(S(C)(=O)=O)cc3)n2)n1C(C)C	active
NC(=O)c1ccc(N(C(N)=O)c2c(F)cccc2F)nc1-c1ccc(F)cc1F	inactive
Clc1ccc(C(Cn2ccnc2)OCc2ccc(Sc3ccccc3)cc2)c(Cl)c1 (stereo not given)	active

So what was the verdict on CCN1CCN(Cc2ccc(Nc3ncc(F)c(-c4cc(F)c5nc(C)n(C(C)C)c5c4)n3)nc2)CC1 in this test?
active

So what was the verdict on O=C(Nc1ccccc1Br)N[C@@H]1CCN(c2ccc(C(F)(F)F)cn2)C1 in this test?
inactive

So what was the verdict on Nc1nc2c(c(=O)[nH]1)N(C=O)[C@H](CNc1ccc(C(=O)N[C@@H](CCC(=O)O)C(=O)O)cc1)CN2 in this test?
inactive

So what was the verdict on COc1ccc2nc3n[nH]c(C)c3c(NCCOCCO)c2c1 in this test?
inactive

Provenance of the data: PubChem BioAssay (NCATS)
